All values here come from patent US20230256092A1.

For each entry below, report its IC50 ratio (WT IC50/mutant IC50) value.
- Target entity: human CCR8 (human) (UniProt P51685)
- Procedure details: cell-based or functional assay
One number for each entry.

# annotated cases, reported IC50 ratio (WT IC50/mutant IC50) shown
h10A11 (IGKV4-1/IGHV3-73 S52cT) (antibody, name in Kabat numbering, V domains shown) VH: EVQLVESGGGLVQPGGSLKLSCAASGFAFNTYALYWVRQASGKGLEWVGRIRSKTNNYATYYADSVKDRFTISRDDSKNTAYLQMNSLKTEDTAVYYCTRARFYYSDYGYAMDYWGQGTLVTVSS VL: DIVMTQSPDSLAVSLGERATINCRSSKSLLHSNGNTYLYWYQQKPGQPPKLLIYRMSNLASGVPDRFSGSGSGTDFTLTISSLQAEDVAVYYCMQHLEYPLTFGQGTKLEIKR ... 0.53
h10A11 (IGKV4-1/IGHV3-73 I51L) (antibody, name in Kabat numbering, V domains shown) VH: EVQLVESGGGLVQPGGSLKLSCAASGFAFNTYALYWVRQASGKGLEWVGRLRSKSNNYATYYADSVKDRFTISRDDSKNTAYLQMNSLKTEDTAVYYCTRARFYYSDYGYAMDYWGQGTLVTVSS VL: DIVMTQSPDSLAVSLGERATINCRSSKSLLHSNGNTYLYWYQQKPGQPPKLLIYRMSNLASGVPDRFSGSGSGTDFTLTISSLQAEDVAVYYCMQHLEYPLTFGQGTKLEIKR ... 0.22

Next binder, please.
Tell me the measured IC50 ratio (WT IC50/mutant IC50) of h10A11 (IGKV4-1/IGHV3-73 K64R) (antibody, name in Kabat numbering, V domains shown) VH: EVQLVESGGGLVQPGGSLKLSCAASGFAFNTYALYWVRQASGKGLEWVGRIRSKSNNYATYYADSVRDRFTISRDDSKNTAYLQMNSLKTEDTAVYYCTRARFYYSDYGYAMDYWGQGTLVTVSS VL: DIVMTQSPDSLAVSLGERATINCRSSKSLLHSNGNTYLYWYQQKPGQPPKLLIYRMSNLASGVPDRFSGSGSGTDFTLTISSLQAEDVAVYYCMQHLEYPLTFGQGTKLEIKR , please.
0.54
